Values compiled from patent US20110059953A1.

Target Or Test System: T-p53C-Y220C (Homo sapiens, UniProt P04637, M133L/N239Y/N268D/V203A/Y220C)
Construct: For all other experiments, the DNA coding for residues 94-312 of T-p53C was inserted into a modified pET24a(+) vector; 6xHis tag + B. stearothermophilus dihydrolipoyl acetyltransferase lipoyl domain (aa 1-85) + TEV site (N, cleaved yes); made in house; host or cells: Escherichia coli BL21 (DE3) or C41 (DE3)
Assay Protocol: Thermal denaturation using fluorescence (Sypro Orange)
Type: binding
Condition Context: further studies on compounds described above; 10 μM protein
Reported Metric: ΔTm (° C.) (°C)

{"columns": ["Molecule", "Target Or Test System", "Recorded Result"],
 "data": [
  ["CCC(CO)NCc1ccc2c(c1)c1ccccc1n2CC (stereo not shown)", "T-p53C-Y220C (Homo sapiens, UniProt P04637, M133L/N239Y/N268D/V203A/Y220C)", 0.793]
]}

(P) CCn1c2ccccc2c2cc(CNC)ccc21
(Q) CCn1c2ccccc2c2cc(NC(=O)COC(=O)Cn3cnc4c3c(=O)n(C)c(=O)n4C)ccc21
(R) CCn1c2ccccc2c2cc(NC(=O)COc3ccc([N+](=O)[O-])nc3)ccc21
Problem: Give the ascending ranking of the items by reported ΔTm (° C.). Labels, ranked as asked.
Result: R, Q, P

* * *

Target Or Test System: T-p53C-Y220C (Homo sapiens, UniProt P04637, M133L/N239Y/N268D/V203A/Y220C)
Construct: For all other experiments, the DNA coding for residues 94-312 of T-p53C was inserted into a modified pET24a(+) vector; 6xHis tag + B. stearothermophilus dihydrolipoyl acetyltransferase lipoyl domain (aa 1-85) + TEV site (N, cleaved yes); made in house; host or cells: Escherichia coli BL21 (DE3) or C41 (DE3)
Assay Protocol: 1H/15N-HSQC NMR chemical shift binding (KD NMR)
Condition Context: KD (@ 20° C.) μM, further NMR studies, some revised values
Experimental: Uniformly ^15N-labelled core domains of T-p53C-Y220C was expressed and purified according to the above described protocol. The low molecular-weight compounds were dissolved in d^6-DMSO to make 10 mM stock solutions. To screen compound mixtures by chemical shift mapping, 10 μl of each of 4 different compounds were mixed together and 25 μl of this mixture was added to 25 μl of D2O and 500 μl of 70 μM T-p53C-Y220C (in 25 mM NaPi, 150 mM NaCl and 5 mM DTT, pH 7.2 ). […]
Reported Metric: Kd (µM)

Please review the entries below; each comes with its answer.
{"columns": ["Molecule", "Readout Units", "Kd"],
 "data": [
  ["CCn1c2ccccc2c2cc(CNC)ccc21", "µM", 114],
  ["CCn1c2ccccc2c2cc(C3CC4CN(C)C(=O)C45CCCN35)ccc21 (stereo not drawn)", "µM", 113],
  ["CCC(CO)NCc1ccc2c(c1)c1ccccc1n2CC (stereo not drawn)", "µM", 97]
]}

(a) CCn1c2ccccc2c2cc(CNCCCn3ccnc3)ccc21
(b) CCn1c2ccccc2c2cc(CNCCO)ccc21
(c) CCn1c2ccccc2c2cc(CNCCN(C)C)ccc21
Problem: Give the ascending ranking of the items by reported Kd. Labels, ranked as asked.
Result: a, b, c

* * *

Target Or Test System: T-p53C-Y220C (Homo sapiens, UniProt P04637, M133L/N239Y/N268D/V203A/Y220C)
Construct: For all other experiments, the DNA coding for residues 94-312 of T-p53C was inserted into a modified pET24a(+) vector; 6xHis tag + B. stearothermophilus dihydrolipoyl acetyltransferase lipoyl domain (aa 1-85) + TEV site (N, cleaved yes); made in house; host or cells: Escherichia coli BL21 (DE3) or C41 (DE3)
Assay Protocol: Thermal denaturation using capillary DSC
Assay type: binding
Condition Context: increase in Tm on adding 250 μM of the test compound; 20 μM protein
Reported Metric: ΔTm (°C)

Please review the entries below; each comes with its answer.
{"columns": ["Molecule", "Target Or Test System", "Readout Units", "ΔTm"],
 "data": [
  ["CCn1c2ccccc2c2cc(NC(=O)C(C)OC(=O)c3ccc(-n4cnnn4)cc3)ccc21 (stereo not shown)", "T-p53C-Y220C (Homo sapiens, UniProt P04637, M133L/N239Y/N268D/V203A/Y220C)", "°C", 0.4],
  ["CCn1c2ccccc2c2cc(NC(=O)CCc3c(C)[nH]c(=O)c(C#N)c3C)ccc21", "T-p53C-Y220C (Homo sapiens, UniProt P04637, M133L/N239Y/N268D/V203A/Y220C)", "°C", 0.48],
  ["CCn1c2ccccc2c2cc(CN3CCNCC3)ccc21", "T-p53C-Y220C (Homo sapiens, UniProt P04637, M133L/N239Y/N268D/V203A/Y220C)", "°C", 0.25],
  ["CCn1c2ccccc2c2cc(NC(=O)C(C)OC(=O)c3ccc([N+](=O)[O-])o3)ccc21 (stereo not shown)", "T-p53C-Y220C (Homo sapiens, UniProt P04637, M133L/N239Y/N268D/V203A/Y220C)", "°C", 0.48],
  ["CCn1c2ccccc2c2cc(CN(C)C(=O)c3nccnc3N)ccc21", "T-p53C-Y220C (Homo sapiens, UniProt P04637, M133L/N239Y/N268D/V203A/Y220C)", "°C", 0.51],
  ["CCn1c2ccccc2c2cc(NC(=O)CSc3nccc(=O)[nH]3)ccc21", "T-p53C-Y220C (Homo sapiens, UniProt P04637, M133L/N239Y/N268D/V203A/Y220C)", "°C", 0.39]
]}

(A) CCn1c2ccccc2c2cc(NC(=S)Nc3cc(S(=O)(=O)N(C)C)ccc3C)ccc21
(B) CCn1c2ccccc2c2cc(NC(=O)CSc3nnc(N)s3)ccc21
Problem: # returns the entry with the larger ΔTm; inputs A and B Bench note: the answer is the label of the chosen record.
Result: B
(B: 0.53 °C, A: 0.37 °C)

(A) Cc1ccc(CN2C[C@@H]3C[C@@H](C)N4CCC[C@@]34C2=O)o1
(B) CCC(CO)NCc1ccc2c(c1)c1ccccc1n2CC (stereo not shown)
Problem: # returns the entry with the larger ΔTm; inputs A and B Bench note: the answer is the label of the chosen record.
Result: B
